System: MV4:11 human cancer cell lines
experimentalDetails: Cellular viability / anti-proliferative assay, CellTiter-Glo, 5 day protocol
Format: cell-based
condition: Homo sapiens, MV4-11, 120 h, MV4:11 cells; 5 day incubation; CellTiter-Glo; mean of at least two replicates; read-out: GI50 on cellular proliferation of MV4:11 human cancer cell lines

{"molecule": "COc1cc(COC2CCC2)c2nccc(N3CCc4c(cc(Cn5ccnc5)cc4-c4cn(C)nc4C(F)(F)F)C3=O)c2c1", "testedSystem": "MV4:11 human cancer cell lines", "measurementUnit": "nM", "relationalOperator": "=", "GI50": 159}
{"molecule": "CCc1cc(OC)c2nccc(N3CCc4c(cc(Cn5ccnc5)cc4-c4cccnc4C(F)(F)F)C3=O)c2c1", "testedSystem": "MV4:11 human cancer cell lines", "measurementUnit": "nM", "relationalOperator": "=", "GI50": 55}
{"molecule": "CCc1cc(C(=O)NC)c2nccc(N3CCc4c(cc(Cn5ccnc5)cc4-c4cn(C)nc4C(F)(F)F)C3=O)c2c1", "testedSystem": "MV4:11 human cancer cell lines", "measurementUnit": "nM", "relationalOperator": "<", "GI50": 20}
{"molecule": "CCc1cc(COc2ccncc2)c2nccc(N3CCc4c(cc(Cn5ccnc5)cc4-c4cn(C)nc4C(F)(F)F)C3=O)c2c1", "testedSystem": "MV4:11 human cancer cell lines", "measurementUnit": "nM", "relationalOperator": "=", "GI50": 43}
{"molecule": "CCc1cc(OC)cc2c(N3CCc4c(cc(Cn5ccnc5)cc4-c4cn(C)nc4C(F)(F)F)C3=O)ccnc12", "testedSystem": "MV4:11 human cancer cell lines", "measurementUnit": "nM", "relationalOperator": "=", "GI50": 75}
{"molecule": "COc1cc(-c2n[nH]c(=O)o2)c2nc(C)cc(N3CCc4c(cc(Cn5ccnc5)cc4-c4cn(C)nc4C(F)(F)F)C3=O)c2c1", "testedSystem": "MV4:11 human cancer cell lines", "measurementUnit": "nM", "relationalOperator": "=", "GI50": 68}
{"molecule": "CCc1cc(F)c2cncc(N3CCc4c(cc(Cn5ccnc5)cc4-c4cn(C)nc4C(F)(F)F)C3=O)c2c1", "testedSystem": "MV4:11 human cancer cell lines", "measurementUnit": "nM", "relationalOperator": "=", "GI50": 40}
{"molecule": "COc1cc(CN2CCCC2)c2nccc(N3CCc4c(cc(Cn5ccnc5)cc4-c4cn(C)nc4C(F)(F)F)C3=O)c2c1", "testedSystem": "MV4:11 human cancer cell lines", "measurementUnit": "nM", "relationalOperator": "<", "GI50": 20}
{"molecule": "Cc1nccn1Cc1cc2c(c(-c3cn(C)nc3C(F)(F)F)c1)CCN(C1CCCc3ncccc31)C2=O (stereo not drawn)", "testedSystem": "MV4:11 human cancer cell lines", "measurementUnit": "nM", "relationalOperator": "=", "GI50": 284}
{"molecule": "COc1cc(OC)c2cncc(N3CCc4c(cc(Cn5ccnc5)cc4-c4cn(C)nc4C(F)(F)F)C3=O)c2c1", "testedSystem": "MV4:11 human cancer cell lines", "measurementUnit": "nM", "relationalOperator": "=", "GI50": 27}
{"molecule": "COc1cc(C(N)=O)c2nc(C)cc(N3CCc4c(cc(Cn5ccnc5)cc4-c4cn(C)nc4C(F)(F)F)C3=O)c2c1", "testedSystem": "MV4:11 human cancer cell lines", "measurementUnit": "nM", "relationalOperator": "<", "GI50": 20}
{"molecule": "COc1cc(C(N)=O)c2nccc(N3CCc4c(cc(Cn5ccnc5)cc4-c4cn(C)nc4C(F)(F)F)C3=O)c2c1", "testedSystem": "MV4:11 human cancer cell lines", "measurementUnit": "nM", "relationalOperator": "=", "GI50": 24}
{"molecule": "COc1ccc2c(=O)[nH]cc(N3CCc4c(cc(Cn5ccnc5)cc4-c4cn(C)nc4C(F)(F)F)C3=O)c2c1", "testedSystem": "MV4:11 human cancer cell lines", "measurementUnit": "nM", "relationalOperator": "=", "GI50": 163}
{"molecule": "COc1ccc2c(c1)[C@@H](N1CCc3c(cc(Cn4ccnc4)cc3-c3cn(C)nc3C(F)(F)F)C1=O)CCO2", "testedSystem": "MV4:11 human cancer cell lines", "measurementUnit": "nM", "relationalOperator": "<", "GI50": 20}
{"molecule": "COCCN1CCN(Cc2cc(OC)cc3c(N4CCc5c(cc(Cn6ccnc6)cc5-c5cn(C)nc5C(F)(F)F)C4=O)ccnc23)CC1", "testedSystem": "MV4:11 human cancer cell lines", "measurementUnit": "nM", "relationalOperator": "<", "GI50": 20}
{"molecule": "COc1cc(CN2CCN3CCOC[C@@H]3C2)c2nccc(N3CCc4c(cc(Cn5ccnc5)cc4-c4cn(C)nc4C(F)(F)F)C3=O)c2c1", "testedSystem": "MV4:11 human cancer cell lines", "measurementUnit": "nM", "relationalOperator": "<", "GI50": 20}
{"molecule": "COc1cc(Br)c2nccc(N3CCc4c(cc(Cn5ccnc5)cc4-c4cn(C)nc4C(F)(F)F)C3=O)c2c1", "testedSystem": "MV4:11 human cancer cell lines", "measurementUnit": "nM", "relationalOperator": "=", "GI50": 65}
{"molecule": "CCc1cc(COC)c2nccc(N3CCc4c(cc(Cn5ccnc5)cc4-c4cn(C)nc4C(F)(F)F)C3=O)c2c1", "testedSystem": "MV4:11 human cancer cell lines", "measurementUnit": "nM", "relationalOperator": "<", "GI50": 20}
{"molecule": "CCc1cc(CNC(C)=O)c2nccc(N3CCc4c(cc(Cn5ccnc5)cc4-c4cn(C)nc4C(F)(F)F)C3=O)c2c1", "testedSystem": "MV4:11 human cancer cell lines", "measurementUnit": "nM", "relationalOperator": "=", "GI50": 23}
{"molecule": "CCn1cc(N2CCc3c(cc(Cn4ccnc4)cc3-c3cn(C)nc3C(F)(F)F)C2=O)c2cc(OC)cnc21", "testedSystem": "MV4:11 human cancer cell lines", "measurementUnit": "nM", "relationalOperator": "=", "GI50": 39}
{"molecule": "COc1ccc2nc(C)cc(N3CCc4c(cc(Cn5ccnc5N)cc4-c4cn(C)nc4C(F)(F)F)C3=O)c2c1", "testedSystem": "MV4:11 human cancer cell lines", "measurementUnit": "nM", "relationalOperator": "<", "GI50": 20}
{"molecule": "COc1cc(C(=O)NC2CCN(C)CC2)c2nc(C)cc(N3CCc4c(cc(Cn5ccnc5)cc4-c4cn(C)nc4C(F)(F)F)C3=O)c2c1", "testedSystem": "MV4:11 human cancer cell lines", "measurementUnit": "nM", "relationalOperator": "<", "GI50": 20}
{"molecule": "COc1ccc2c(c1)C(N1CCc3c(cc(Cn4ccnc4)cc3-c3cn(C)nc3C(F)(F)F)C1=O)CCC2 (stereo not drawn)", "testedSystem": "MV4:11 human cancer cell lines", "measurementUnit": "nM", "relationalOperator": "=", "GI50": 84}
{"molecule": "CCn1cc(-c2cc(Cn3ccnc3)cc3c2CCN(c2cncc4ccc(C)cc24)C3=O)c(C(F)(F)F)n1", "testedSystem": "MV4:11 human cancer cell lines", "measurementUnit": "nM", "relationalOperator": "=", "GI50": 71}
{"molecule": "COc1ccc2c(Cl)ncc(N3CCc4c(cc(Cn5ccnc5)cc4-c4cn(C)nc4C(F)(F)F)C3=O)c2c1", "testedSystem": "MV4:11 human cancer cell lines", "measurementUnit": "nM", "relationalOperator": "=", "GI50": 23}
{"molecule": "CCc1cc(C(=O)NCCNC(=O)c2cnccn2)c2nccc(N3CCc4c(cc(Cn5ccnc5)cc4-c4cn(C)nc4C(F)(F)F)C3=O)c2c1", "testedSystem": "MV4:11 human cancer cell lines", "measurementUnit": "nM", "relationalOperator": "<", "GI50": 20}
{"molecule": "COc1cnc2cc(C)cc(N3CCc4c(cc(Cn5ccnc5)cc4-c4cn(C)nc4C(F)(F)F)C3=O)c2c1", "testedSystem": "MV4:11 human cancer cell lines", "measurementUnit": "nM", "relationalOperator": "<", "GI50": 20}

----------
System: MV4:11 human cancer cell lines
experimentalDetails: Cellular viability / anti-proliferative assay, CellTiter-Glo, 5 day protocol
Type: cell-based
condition: Homo sapiens, MV4-11, 120 h, MV4:11 cells; 5 day incubation; CellTiter-Glo; mean of at least two replicates; read-out: GI50 on cellular proliferation of MV4:11 human cancer cell lines
Some molecules, each annotated with its measured GI50.
experimentalEndpoint: GI50 (µM)

{"molecule": "CCc1cc(N2CCOCC2)c2nc(C)cc(N3CCc4c(cc(Cn5ccnc5)cc4-c4cn(C)nc4C(F)(F)F)C3=O)c2c1 [Example 145]", "measurementUnit": "µM", "relationalOperator": "=", "number": 0.036}
{"molecule": "CCc1cc(-c2cccn2C)c2nccc(N3CCc4c(cc(Cn5ccnc5)cc4-c4cn(C)nc4C(F)(F)F)C3=O)c2c1 [Example 97]", "measurementUnit": "µM", "relationalOperator": "=", "number": 0.083}
{"molecule": "CCc1cc(Br)c2nc(C)cc(N3CCc4c(cc(Cn5ccnc5)cc4-c4cn(C)nc4C(F)(F)F)C3=O)c2c1 [Example 109]", "measurementUnit": "µM", "relationalOperator": "=", "number": 0.022}
{"molecule": "CCc1cc(C(=O)NCCO)c2nccc(N3CCc4c(cc(Cn5ccnc5)cc4-c4cn(C)nc4C(F)(F)F)C3=O)c2c1 [Example 168]", "measurementUnit": "µM", "relationalOperator": "=", "number": 0.046}
{"molecule": "COc1ccc2nc(C)cc(N3CCc4c(cc(Cn5ccnc5[N+](=O)[O-])cc4-c4cn(C)nc4C(F)(F)F)C3=O)c2c1 [Example 118]", "measurementUnit": "µM", "relationalOperator": "=", "number": 3.97}
{"molecule": "COc1ccc2cncc(N3CCc4c(cc(Cn5ccnc5)cc4-c4cn(C)nc4C(F)(F)F)C3=O)c2c1 [Example 87]", "measurementUnit": "µM", "relationalOperator": "<", "number": 0.02}
{"molecule": "CCc1cc(C#N)c2nccc(N3CCc4c(cc(Cn5ccnc5)cc4-c4cn(C)nc4C(F)(F)F)C3=O)c2c1 [Example 204]", "measurementUnit": "µM", "relationalOperator": "=", "number": 0.022}
